Test system: HIV-1(IIIB) (WT)
Test description: microbe, parasite or virus in culture
Assay type: cell-based
Experimental conditions: Human immunodeficiency virus 1, IIIB, CCRF-CEM; HIV-1 (III8), Table 5; read-out: EC50

{"Compound": "CCc1cc(NCc2nc3c(Cl)ccc(Cl)c3o2)c(O)nc1C [Pyridinone L-697,661, reference compound]", "Endpoint unit": "ng/mL", "EC50": 7}
{"Compound": "Cc1ccnc2c1NC(=O)c1cccnc1N2C1CC1 [Nevirapine, reference compound]", "Endpoint unit": "ng/mL", "EC50": 7}
{"Compound": "Cc1occc1C(=S)Nc1ccc(Cl)c(C(=O)OCC(C)C)c1", "Endpoint unit": "ng/mL", "EC50": 7}

Values were extracted from patent US5968910A.
